Consider the following compounds; for each one, report its normalized growth.
- experiment: chemical genetic growth profiling, strain panel (AID 1159580);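 further: tested at 20 µM; growth read once vehicle control cultures reached saturation at 30 °C; 1 = growth at the plate median or of vehicle wells; lower values mean less growth of the strain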
- experimental conditions: S. cerevisiae deletion strains, growth OD, locus YDR101C, strain arx1, stronger effect = lower value
The whole screen tested about 5,500 compounds, of which about 2,000 (36%) were called active. About 18% were inconclusive and are not listed. This is one part of the list.
Give the value as a plain number.

Q) Requested field: normalized growth. Item: CC(=O)O[C@H]1CC[C@@]2(C)C(CC[C@]3(C)C2CC=C2C4CC(C)(C)CC[C@]4(C)CC[C@]23C)C1(C)C (some centres not stated)
A) 0.997

Q) Give its normalized growth value. Item: C[C@@H]1OC(O[C@H]2[C@H](O)[C@@H](O)[C@H](OC[C@H]3O[C@@H](OC(=O)[C@]45CCC(C)(C)CC4C4=CCC6[C@@]7(C)CC[C@H](OC8OC[C@H](O)[C@H](O)[C@H]8OC8O[C@@H](C)[C@H](O)[C@@H](O)[C@H]8O)[C@@](C)(CO)C7CC[C@@]6(C)[C@]4(C)CC5)[C@H](O)[C@@H](O)[C@@H]3O)O[C@@H]2CO)[C@H](O)[C@H](O)[C@H]1O (some centres not stated)
A) 0.995

====

- experiment: chemical genetic growth profiling, strain panel (AID 1159580);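 further: tested at 20 µM; growth read once vehicle control cultures reached saturation at 30 °C; 1 = growth at the plate median or of vehicle wells; lower values mean less growth of the strain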
- experimental conditions: S. cerevisiae deletion strains, growth OD, locus YJL187C, strain SWE1 (second series)
Screen size: about 5,500 compounds; about 2,000 (36%) were called active. Roughly 18% stayed inconclusive and do not appear here. Cut-off read from the data, not from the text of the source: active = normalized growth mostly below about 0.91 (no sharp cut-off); inconclusive = no clear call, values can overlap the other calls; inactive = mostly above about 0.92. Some of the results follow.
The reply should name one outcome from active, inactive

Q) Query: recorded result category for Cc1cn([C@H]2C[C@H](N=[N+]=[N-])[C@@H](CO)O2)c(=O)[nH]c1=O in this test
A) inactive

Q) Which outcome was assigned to CC(C)CC(N(C)C)C1(c2ccc(Cl)cc2)CCC1 (configuration not stated) in this test?
A) inactive

Q) Kindly provide the recorded test outcome for the following compound: N[C@H](C(=O)O)[C@@H]1CC(Cl)=NO1
A) active

Q) Which outcome was assigned to Cc1cc(O)cc(C)c1Cl in this test?
A) inactive

Q) Would you mind telling me which call this test gave NNc1nncc2ccccc12 ?
A) inactive

Q) Tell me the recorded outcome of this test for Nc1c2c(nc3ccccc13)CCCC2O (configuration not stated) .
A) inactive

Q) Could you check what this test reported for NCCC(=O)N[C@@H](Cc1cnc[nH]1)C(=O)O ?
A) inactive

Q) What classification did CNC(=O)O/N=C\C(C)(C)SC end up with in this test?
A) inactive

Q) Tell me the assay call for COC(=O)C[C@H]1C(C)(C)C2(O)OC34CC2C(=O)[C@]1(C)C3CC[C@]1(C)C4=CC(=O)O[C@H]1c1ccoc1 (some centres not stated) please.
A) inactive

Q) Give the logged outcome of this assay for the following compound: CC(C)=CCCC1(C)C=Cc2c(O)c3c(c(CC=C(C)C)c2O1)OC12C(CC4CC1C(C)(C)OC2(C/C=C(/C)C(=O)O)C4O)C3=O (configuration not stated)
A) inactive

Q) Write down the call the test reported for this compound. Item: Cc1cc(O)ccc1Cl
A) inactive

Q) # fetch the recorded call for CC(C)=CCCC1(C)C=Cc2c(O)c3c(c(CC=C(C)C)c2O1)OC12C(=CC4CC1C(C)(C)OC2(C/C=C(/C)C(=O)O)C4O)C3=O (configuration not stated) here
A) inactive

Q) // outcome(item) with item = CNCc1ccccc1
A) inactive

Q) Any idea what this test logged for COC1=C[C@@H]2[C@@H]3Cc4ccc(OC)c(O)c4[C@]2(CCN3C)CC1=O ?
A) inactive

Q) What was the test verdict on Cc1cc(O)cc(=O)o1 ?
A) inactive

Q) What call does the record list for C#C[C@]1(O)CCC2C3CCC4=CC(=O)CC[C@@H]4C3CC[C@@]21C (some centres not stated) ?
A) inactive

Q) Test call, this compound: COc1ccc2c3c([nH]c2c1)C(C)=NCC3
A) inactive

Q) Hey, what did the test say about Cc1cc(O)c2c(c1)Cc1cccc(O)c1C2=O ?
A) active

Q) // outcome(item) with item = C/C=C1\[C@H]2C=C(C)C[C@]1(N)c1ccc(=O)[nH]c1C2
A) inactive

Q) Tell me the assay call for C[C@]12CCC(=O)C=C1CCC1C2[C@@H](O)C[C@@]2(C)C1CC[C@]2(O)C(=O)CO (some centres not stated) please.
A) inactive

Q) Please share the test call associated with COc1ccc2c(c1)c(CC(=O)OCC(=O)O)c(C)n2C(=O)c1ccc(Cl)cc1 .
A) inactive

Q) Per the assay record, what outcome was assigned to CCC(C)C(=O)O[C@H]1[C@H](O)C2C(CN3CC(C)CCC3[C@@]2(C)O)C2C[C@]34O[C@]5(O)C(OC(=O)C(C)(O)CC)CC[C@@]3(C)C5C(OC(C)=O)[C@@H](OC(C)=O)C4[C@@]21O (some centres not stated) ?
A) inactive

====

- experiment: chemical genetic growth profiling, strain panel (AID 1159580);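 further: tested at 20 µM; growth read once vehicle control cultures reached saturation at 30 °C; 1 = growth at the plate median or of vehicle wells; lower values mean less growth of the strain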
- experimental conditions: S. cerevisiae deletion strains, growth OD, locus YPL241C, strain CIN2, stronger effect = lower value
Out of some 5,500 compounds screened, about 2,000 (36%) were called active. Roughly 18% stayed inconclusive and do not appear here. This is one part of the list.
Consider the following molecules; for each one, report its normalized growth.
Returns: the value as a bare number; no unit string appended.

Q) Could you tell me which normalized growth is on file for COc1ccc2c(c1)c(CC(=O)O)c(C)n2C(=O)c1ccccc1 ?
A) 0.998

Q) For the molecule CC(=O)O[C@H]1CC[C@@]2(C)C(CC[C@]3(C)C2CC=C2C4CC(C)(C)CC[C@]4(C)CC[C@]23C)C1(C)C (stereo partly specified) , what normalized growth is on record?
A) 1.01

Q) Find the recorded normalized growth belonging to O=c1oc2cc(O)ccc2s1 and report it.
A) 0.989

Q) Item under review: C#C[C@]1(O)CCC2C3CCC4=C(CCC(=O)C4)C3CC[C@@]21C (stereo partly specified) . Reported normalized growth?
A) 1.02

Q) Fill in the blank: the reported normalized growth of COc1ccc2c(c1)c(CC(=O)O)c(C)n2C(=O)c1ccc(Cl)cc1 is ____.
A) 0.996

Q) State the recorded normalized growth for this entry: Cc1nc(-c2nnc(Sc3ccc(C(F)(F)F)cc3[N+](=O)[O-])n2C)cs1
A) 1

Q) Recorded normalized growth for Cc1c(Br)sc2ccc(Cl)cc12 , please?
A) 0.939

Q) Fill in: normalized growth of CC1(C)CC[C@]2(C(=O)O)CC[C@]3(C)C(=CCC4[C@@]5(C)CC[C@H](O)[C@@](C)(CO)C5CC[C@]43C)C2C1 (stereo partly specified) is ___
A) 0.999

Q) If you can, please state the reported normalized growth value of CC12CCC3C4CCC(=O)C=C4CCC3C1CCC2=O (stereo unspecified) .
A) 1.01

Q) For C#C[C@]1(O)CCC2C3CCC4=CC(=O)CC[C@@H]4C3CC[C@@]21C (stereo partly specified) , what is its reported normalized growth?
A) 0.996

Q) Given Cc1nn(C)c(C)c1NS(=O)(=O)c1cc(Cl)sc1Cl , state its recorded normalized growth.
A) 1.01

====

What normalized growth was measured for each of the following?
- experiment: chemical genetic growth profiling, strain panel (AID 1159580);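 further: tested at 20 µM; growth read once vehicle control cultures reached saturation at 30 °C; 1 = growth at the plate median or of vehicle wells; lower values mean less growth of the strain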
- experimental conditions: S. cerevisiae deletion strains, growth OD, locus YIR030C, strain dcg1, stronger effect = lower value
The whole screen tested about 5,500 compounds, of which about 2,000 (36%) were called active. About 18% were inconclusive and are not listed. Some of the results follow. Where a SMILES comes first, the peptide text is derived from it. Bridges are numbered along the chain shown (N, C = ends). [ ]: non-standard residue; d: D form. The star is where a group is joined. ξ: configuration not given here. ξDab(CH2SO3H) = NC(CCNCS(=O)(=O)O)C(=O)O; Heptanoyl(6-Me) = CC(C)CCCCC(=O)*; Dab = NCC[CH](N)C(=O)O
Give the figure only, with no unit attached.

Q) Which normalized growth value belongs to CNCc1ccccc1 ?
A) 0.99

Q) Which normalized growth value belongs to O=C(COc1ccc(Cl)cc1)N1CCN(Cc2ccc3c(c2)OCO3)CC1 ?
A) 0.973

Q) State the recorded normalized growth for this entry: NC12CC3CC(CC(C3)C1)C2
A) 1.02

Q) May I ask what normalized growth has been recorded for COC(=O)C[C@H]1C(C)(C)C2(O)OC34CC2C(=O)[C@]1(C)C3CC[C@]1(C)C4=CC(=O)O[C@H]1c1ccoc1 (some centres not stated) ?
A) 1.01

Q) What normalized growth value was documented for this compound, O=c1[nH]cc(F)c(=O)[nH]1 ?
A) 0.838

Q) Fill in: normalized growth of CCC(C)C1NC(=O)C(CCNCS(=O)(=O)O)NC(=O)C(NC(=O)C(CCNCS(=O)(=O)O)NC(=O)C(NC(=O)C(CCNCS(=O)(=O)O)NC(=O)CCCCC(C)C)C(C)O)CCNC(=O)C(C(C)O)NC(=O)C(CCNCS(=O)(=O)O)NC(=O)C(CCNCS(=O)(=O)O)NC(=O)C(C(C)CC)NC1=O (configuration not stated) ({Heptanoyl(6-Me)}-[ξDab(CH2SO3H)]T[ξDab(CH2SO3H)][Dab][ξDab(CH2SO3H)]II[ξDab(CH2SO3H)][ξDab(CH2SO3H)]T; lactam 4-C; configuration not given here) is ___
A) 0.967

Q) Param item = Nc1ccc(S(=O)(=O)Nc2ccnn2-c2ccccc2)cc1 ; retrieve measured normalized growth.
A) 0.993
